The measurements presented in this section are drawn from PubChem BioAssay AID2060493.

test system: 616215-338-R-J1-PDC tumor spheroids, viability; experiment: Anticancer human tumor 616215-338-R-J1-PDC patient-derived colon adenocarcinoma cell line growth inhibition [GQUAD]; details: second compound 0.1 µM; first compound 1 µM; hits give low values; spheroids with HUVEC and MSC

>  <compound>
COc1ncnc(C2CC2)c1-c1ncc2cnn(Cc3ccc(-c4nc(C(F)(F)F)cn4C(C)C)cc3)c2n1 + Cc1cnc(CNC(=O)c2c(=O)c3ccc(N4CCCN(C)CC4)nc3n3c2sc2ccccc23)cn1

>  <viability, T/C [%]>
57.5

$$$$
>  <compound>
CC(=O)O[C@H]1C(=O)[C@@]2(C)[C@H]([C@H](OC(=O)c3ccccc3)[C@]3(O)C[C@H](OC(=O)[C@H](O)[C@@H](NC(=O)c4ccccc4)c4ccccc4)C(C)=C1C3(C)C)[C@]1(OC(C)=O)CO[C@@H]1C[C@@H]2O + Cc1[nH]c2ccc(F)cc2c1-c1nc2c3cccnc3c3ncccc3c2[nH]1

>  <viability, T/C [%]>
12.1

$$$$

* * *

system: 616215-338-R-J1-PDC tumor spheroids, viability; test: Anticancer human tumor 616215-338-R-J1-PDC cell line growth inhibition [GQUAD]; conditions: second compound 0.1 µM; first compound 10 µM; hits give low values; spheroids with HUVEC and MSC;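 further: spheroids exposed to agents for 7 days before readout; percent viability relative to DMSO vehicle control wells taken as 100%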

>  <compound>
Nc1ccn(C2OC(CO)C(O)C2(F)F)c(=O)n1 (configuration not stated) + Cc1[nH]c2ccc(F)cc2c1-c1nc2c3cccnc3c3ncccc3c2[nH]1

>  <uom>
%

>  <viability, T/C>
17.1

$$$$
>  <compound>
C=CC(=O)N1CCN(c2nc(=O)n(-c3c(C)ccnc3C(C)C)c3nc(-c4c(O)cccc4F)c(F)cc23)C(C)C1 (configuration not stated) + Cc1[nH]c2ccc(F)cc2c1-c1nc2c3cccnc3c3ncccc3c2[nH]1

>  <uom>
%

>  <viability, T/C>
71.6

$$$$
>  <compound>
COc1cc(C2c3cc4c(cc3C(OC3OC5COC(C)OC5C(O)C3O)C3COC(=O)C23)OCO4)cc(OC)c1O (configuration not stated) + Cc1[nH]c2ccc(F)cc2c1-c1nc2c3cccnc3c3ncccc3c2[nH]1

>  <uom>
%

>  <viability, T/C>
28.4

$$$$
>  <compound>
COc1cccc2c1C(=O)c1c(O)c3c(c(O)c1C2=O)CC(O)(C(=O)CO)CC3OC1CC(N)C(O)C(C)O1 (configuration not stated) + Cc1[nH]c2ccc(F)cc2c1-c1nc2c3cccnc3c3ncccc3c2[nH]1

>  <uom>
%

>  <viability, T/C>
4

$$$$
>  <compound>
COc1ncnc(C2CC2)c1-c1ncc2cnn(Cc3ccc(-c4nc(C(F)(F)F)cn4C(C)C)cc3)c2n1 + CN(C)c1ccc(Nc2c3ccc(NC(=O)CCN4CCCC4)cc3nc3cc(NC(=O)CCN4CCCC4)ccc23)cc1

>  <uom>
%

>  <viability, T/C>
90.2

$$$$
>  <compound>
Nc1ccn(C2OC(CO)C(O)C2(F)F)c(=O)n1 (configuration not stated) + CN(C)c1ccc(Nc2c3ccc(NC(=O)CCN4CCCC4)cc3nc3cc(NC(=O)CCN4CCCC4)ccc23)cc1

>  <uom>
%

>  <viability, T/C>
8.91

$$$$
>  <compound>
CC(=O)O[C@H]1C(=O)[C@@]2(C)[C@H]([C@H](OC(=O)c3ccccc3)[C@]3(O)C[C@H](OC(=O)[C@H](O)[C@@H](NC(=O)c4ccccc4)c4ccccc4)C(C)=C1C3(C)C)[C@]1(OC(C)=O)CO[C@@H]1C[C@@H]2O + Cc1[nH]c2ccc(F)cc2c1-c1nc2c3cccnc3c3ncccc3c2[nH]1

>  <uom>
%

>  <viability, T/C>
13.8

$$$$
